The compounds listed here are annotated with their TGI.
test system: K-562 leukemia; assay: NCI tumour cell line growth inhibition, 48 h
measured_endpoint: TGI

{"columns": ["compound", "study_system", "measured_endpoint", "recorded_result"],
 "data": [
  ["COc1ccc2c(c1OC)C(=O)c1cnccc1C2=O", "K-562 leukemia", "TGI", "> 100 µM"],
  ["Clc1nc(Cl)c2ncn(Cc3ccc(Cn4cnc5c(Cl)nc(Cl)nc54)cc3)c2n1", "K-562 leukemia", "TGI", "14 µM"],
  ["Cc1ccc(S(=O)(=O)c2c(N)n(CCN(C)C)c3nc4ccccc4nc23)cc1", "K-562 leukemia", "TGI", "> 100 µM"],
  ["CN1CC(=O)N(C)c2nc[nH]c2C1=O", "K-562 leukemia", "TGI", "> 100 µM"],
  ["CCc1nc(N)nc(N)c1-c1ccc(Cl)c(N=CN(C)C)c1", "K-562 leukemia", "TGI", "> 100 µM"],
  ["COc1cc2c(cc1OC)C(=O)N(NC1=NCCN1)C2=O", "K-562 leukemia", "TGI", "> 100 µM"],
  ["Cc1ccc(-c2nc(N3CCCNCC3)c3oc(-c4ccc(C)cc4)nc3n2)cc1", "K-562 leukemia", "TGI", "2.68 µM"],
  ["COC(=O)c1c(-c2ccccc2)c2sc3ccccc3n2c1N", "K-562 leukemia", "TGI", "> 100 µM"],
  ["O=C(/C=C(\\O)c1ccccc1)c1cc(-c2ccccc2)n(-c2ccccc2)n1", "K-562 leukemia", "TGI", "> 100 µM"],
  ["O=C1NC2(CCN(CCCC3(c4ccc(F)cc4)OCCO3)CC2)Oc2ccccc21", "K-562 leukemia", "TGI", "> 100 µM"],
  ["O=C(/C=C1/Nc2ccc([N+](=O)[O-])cc2NC1O)c1cccc([N+](=O)[O-])c1 (stereo unspecified)", "K-562 leukemia", "TGI", "> 100 µM"],
  ["COc1ccc(-c2nn(-c3cccc(NC(=O)c4ccc(N5CCOCC5)c(C(F)(F)F)c4)c3)cc2-c2ccncc2)cc1Cl", "K-562 leukemia", "TGI", "> 50 µM"],
  ["COc1ccc(Nc2cc(C)nc(N3CCN(c4ccnc5cc(Cl)ccc45)CC3)n2)cc1", "K-562 leukemia", "TGI", "> 100 µM"],
  ["O=C(CSC1=NNC2(C(=O)N1)c1ccccc1-c1ccccc12)NC(=S)Nc1ccccc1", "K-562 leukemia", "TGI", "> 10 µM"],
  ["CC1=C(C(=O)Nc2ccc([N+](=O)[O-])cc2)C(c2ccccc2F)C(C(=O)Nc2ccc([N+](=O)[O-])cc2)=C(C)N1", "K-562 leukemia", "TGI", "> 100 µM"],
  ["COc1cc2oc(=O)ccc2cc1CC=C(C)C", "K-562 leukemia", "TGI", "> 100 µM"],
  ["N#CCCN(CCN(CCC#N)C(=O)Nc1ccccc1)C(=O)Nc1ccccc1", "K-562 leukemia", "TGI", "> 100 µM"],
  ["C[C@]12CC[C@H](O)CC1=CC[C@@H]1C2CC[C@]2(C)Nc3c(cnn3-c3ccc(F)cc3)CC12 (stereo partly specified)", "K-562 leukemia", "TGI", "> 100 µM"],
  ["O=C(Nc1ccn(CCI)c(=O)n1)c1ccccc1", "K-562 leukemia", "TGI", "> 100 µM"],
  ["NCCSCCc1ccccc1", "K-562 leukemia", "TGI", "> 100 µM"],
  ["c1ccc(CC2(c3cc4ccccc4[nH]3)OCCO2)nc1", "K-562 leukemia", "TGI", "> 100 µM"]
]}
